Tested on: PC-3 prostate
Experiment: NCI tumour cell line growth inhibition, 48 h; in the data active = GI50 below about 0.43 µM; inactive = the rest
Parameter call: string, one of t for active, f for inactive

These recorded examples may help you get a feel for the data.
> print(dat)
                                   compound  target.or.system  cat
1       CC(=O)/C=C/C1=C(c2ccsc2)c2ccccc2CC1     PC-3 prostate    f
2  Cc1cccnc1CNC1CC(NCc2ncccc2C)CC(NCc2ncccc2C)C1 (stereo not drawn)     PC-3 prostate    f
3     CC(C)CNc1nc(N=[N+]=[N-])nc(NCC(C)C)n1     PC-3 prostate    f

Exercise: Outcome logged for Cc1c(N2C(=O)/C(=C\c3ccc(N(C)C)cc3)N=C2c2ccccc2)c(=O)n(-c2ccccc2)n1C in this assay:
Solution: f

Exercise: Outcome? COc1cc(C2C(C#N)=C(N)Oc3cc4c(cc32)OCO4)cc2c1OCO2 (stereo not drawn)
Solution: t

Exercise: Give the logged outcome of this assay for the following compound: N#CC(C#N)=Cc1ccc(-c2ccc(-c3nc4ccccc4o3)cc2)o1
Solution: f

Exercise: For COc1ccc(-n2cc(-c3ccc(OC)c(OC)c3)nc2SCc2ccccc2)cc1Cl , what call appears in the results of this test?
Solution: f

Exercise: Assay outcome for C=C=[CH][Sn]([c]1ccccc1)([c]1ccccc1)[c]1ccccc1 : what was it?
Solution: f

###

// reported log10 TGI per item
Tested on: HL-60(TB) leukemia
Experiment: NCI tumour cell line growth inhibition, 48 h
# log10 transformed; quantity=TGI; unit=µM

In the examples that follow, each entry is paired with its recorded log10 TGI.
COMPOUND	log10 TGI
Brc1ccc(Br)nn1	0.69
C[n+]1c(-c2ccc(/C=N\NC(=O)c3ccc(C(=O)N/N=C/c4ccc(-c5cn6ccsc6[n+]5C)cc4)cc3)cc2)cn2ccsc21	1.64
CC[C@@]1(OC(=O)CN)C(=O)OCc2c1cc1n(c2=O)Cc2cc3c(N)c4c(cc3nc2-1)OCO4	-0.95
O=C(Nc1ccc(S(=O)(=O)NC2CCCCCC2)cc1)C(c1ccccc1)S(=O)(=O)c1ccc(F)cc1 (stereo not given)	0.40
N#CC[C@H](C1CCCC1)n1cc(-c2ncnc3[nH]ccc23)cn1	1.78

Here is another compound to look at.
For reference, reported log10 TGI for Oc1[nH]c2ccccc2c1N=NC(=S)N1CCCC1 stands at 0.95

###

Tested on: CAKI-1 renal
Assay: NCI tumour cell line growth inhibition, 48 h; in the data active means GI50 below about 0.43 µM; inactive means the rest
Bench note: report the call from active, inactive

> print(dat)
                                  cpd.smiles       cat
 1  CCS/C(Nc1ccccc1)=C(\C#N)C(=O)N/N=C/c1ccc(Cl)cc1Cl  inactive
 2  Cc1sc(/N=C2/NC(=O)CS2)nc1-c1nc(/N=C2/NC(=O)CS2)sc1C  inactive
 3  O=[N+]([O-])c1ccc(-c2ccccc2)c([As](=O)(O)O)c1  inactive
 4  CS[C@@]1(C(=O)Nc2ccc3[nH]nc(-c4ccc(OC(C)C)nc4)c3c2)CCN(CC(=O)N2CC=C(c3ccc(-c4ncn(C)n4)cc3)CC2)C1  inactive
 5  CCc1ccccc1-n1c(N)c(C#N)c(-c2ccc(OC)c(OC)c2)c(C#N)c1=O  inactive
 6  C=C(C)[C@@H]1CC[C@]2(C)[C@H](C=CC3=C4C[C@@](C)(CO)CC[C@]4(C)CC[C@]32C)[C@@]1(C)CCCN  inactive
 7  CCNCCNc1cc(-c2cccc(C(F)(F)F)c2)c(C#N)c2nc3ccccc3n12  inactive
 8  CC[C@@]1(OC(=O)CN)C(=O)OCc2c1cc1n(c2=O)Cc2cc3c(N)c4c(cc3nc2-1)OCO4    active
 9  COc1cnc2c(c1)C(=O)c1c-2n(CCCN2CCN(CCO)CC2)c(=O)c2cc([N+](=O)[O-])ccc12  inactive
10  N#CC[C@H](C1CCCC1)n1cc(-c2ncnc3[nH]ccc23)cn1  inactive

# input for lookup
Exercise: What classification did O=C(NO)c1cnc(N2CCN(S(=O)(=O)c3ccc4ccccc4c3)CC2)nc1 end up with in this test?
Solution: active

Source of measurements: PubChem BioAssay (NCI)
